- tested system: PIM1 (Homo sapiens)
- Sequence (P11309 whole entry): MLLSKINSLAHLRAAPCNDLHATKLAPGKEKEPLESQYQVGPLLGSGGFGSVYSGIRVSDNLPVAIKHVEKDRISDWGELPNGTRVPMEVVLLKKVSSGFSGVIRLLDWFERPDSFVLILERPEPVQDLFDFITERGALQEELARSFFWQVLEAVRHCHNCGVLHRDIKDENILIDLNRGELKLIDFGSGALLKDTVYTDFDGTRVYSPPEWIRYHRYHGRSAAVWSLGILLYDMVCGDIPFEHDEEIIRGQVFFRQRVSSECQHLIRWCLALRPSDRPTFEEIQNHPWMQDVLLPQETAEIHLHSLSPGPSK
- assay: Recombinant protein kinase assay, PIM1
- details: 15 µM ATP

{"columns": ["compound smiles", "IC50 [nM]"],
 "data": [
  ["COc1cc(/C=C2\\N=C(Nc3ccc(N4CCN(C)CC4)cc3)NC2=O)ccc1O", 210]
]}

* * *

- tested system: CLK2 (Mus musculus, UniProt O35491)
- Sequence (O35491 whole entry): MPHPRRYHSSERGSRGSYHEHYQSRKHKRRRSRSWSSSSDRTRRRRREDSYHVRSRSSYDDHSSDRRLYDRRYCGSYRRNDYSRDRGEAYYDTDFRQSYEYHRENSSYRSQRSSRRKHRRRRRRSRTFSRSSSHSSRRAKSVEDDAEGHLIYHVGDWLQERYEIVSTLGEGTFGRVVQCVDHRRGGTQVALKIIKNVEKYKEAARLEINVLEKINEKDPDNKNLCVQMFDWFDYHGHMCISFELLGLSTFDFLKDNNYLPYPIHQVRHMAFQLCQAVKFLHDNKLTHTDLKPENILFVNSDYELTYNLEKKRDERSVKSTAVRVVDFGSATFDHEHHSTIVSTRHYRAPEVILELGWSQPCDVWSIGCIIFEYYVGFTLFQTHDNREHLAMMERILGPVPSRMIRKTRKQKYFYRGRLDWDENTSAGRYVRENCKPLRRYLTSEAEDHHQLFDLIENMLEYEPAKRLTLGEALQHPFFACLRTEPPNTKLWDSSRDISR
- assay: Recombinant protein kinase assay, CLK2
- Type: biochemical
- details: 15 µM ATP; read-out: IC50 CLK2
property label: IC50 (nM)

{"columns": ["compound", "censoring sign", "measurement"],
 "data": [
  ["O=C1NC(Nc2ccccc2)=N/C1=C\\c1ccc2c(c1)OCCCO2 [L43]", ">", 10000],
  ["COc1cc(/C=C2\\N=C(Nc3ccc(N4CCN(C)CC4)cc3)NC2=O)ccc1O [L99]", "=", 30]
]}
